# tested.on: Histone acetyltransferase KAT6A (Homo sapiens, UniProt Q92794)
# Sequence (Q92794 whole entry): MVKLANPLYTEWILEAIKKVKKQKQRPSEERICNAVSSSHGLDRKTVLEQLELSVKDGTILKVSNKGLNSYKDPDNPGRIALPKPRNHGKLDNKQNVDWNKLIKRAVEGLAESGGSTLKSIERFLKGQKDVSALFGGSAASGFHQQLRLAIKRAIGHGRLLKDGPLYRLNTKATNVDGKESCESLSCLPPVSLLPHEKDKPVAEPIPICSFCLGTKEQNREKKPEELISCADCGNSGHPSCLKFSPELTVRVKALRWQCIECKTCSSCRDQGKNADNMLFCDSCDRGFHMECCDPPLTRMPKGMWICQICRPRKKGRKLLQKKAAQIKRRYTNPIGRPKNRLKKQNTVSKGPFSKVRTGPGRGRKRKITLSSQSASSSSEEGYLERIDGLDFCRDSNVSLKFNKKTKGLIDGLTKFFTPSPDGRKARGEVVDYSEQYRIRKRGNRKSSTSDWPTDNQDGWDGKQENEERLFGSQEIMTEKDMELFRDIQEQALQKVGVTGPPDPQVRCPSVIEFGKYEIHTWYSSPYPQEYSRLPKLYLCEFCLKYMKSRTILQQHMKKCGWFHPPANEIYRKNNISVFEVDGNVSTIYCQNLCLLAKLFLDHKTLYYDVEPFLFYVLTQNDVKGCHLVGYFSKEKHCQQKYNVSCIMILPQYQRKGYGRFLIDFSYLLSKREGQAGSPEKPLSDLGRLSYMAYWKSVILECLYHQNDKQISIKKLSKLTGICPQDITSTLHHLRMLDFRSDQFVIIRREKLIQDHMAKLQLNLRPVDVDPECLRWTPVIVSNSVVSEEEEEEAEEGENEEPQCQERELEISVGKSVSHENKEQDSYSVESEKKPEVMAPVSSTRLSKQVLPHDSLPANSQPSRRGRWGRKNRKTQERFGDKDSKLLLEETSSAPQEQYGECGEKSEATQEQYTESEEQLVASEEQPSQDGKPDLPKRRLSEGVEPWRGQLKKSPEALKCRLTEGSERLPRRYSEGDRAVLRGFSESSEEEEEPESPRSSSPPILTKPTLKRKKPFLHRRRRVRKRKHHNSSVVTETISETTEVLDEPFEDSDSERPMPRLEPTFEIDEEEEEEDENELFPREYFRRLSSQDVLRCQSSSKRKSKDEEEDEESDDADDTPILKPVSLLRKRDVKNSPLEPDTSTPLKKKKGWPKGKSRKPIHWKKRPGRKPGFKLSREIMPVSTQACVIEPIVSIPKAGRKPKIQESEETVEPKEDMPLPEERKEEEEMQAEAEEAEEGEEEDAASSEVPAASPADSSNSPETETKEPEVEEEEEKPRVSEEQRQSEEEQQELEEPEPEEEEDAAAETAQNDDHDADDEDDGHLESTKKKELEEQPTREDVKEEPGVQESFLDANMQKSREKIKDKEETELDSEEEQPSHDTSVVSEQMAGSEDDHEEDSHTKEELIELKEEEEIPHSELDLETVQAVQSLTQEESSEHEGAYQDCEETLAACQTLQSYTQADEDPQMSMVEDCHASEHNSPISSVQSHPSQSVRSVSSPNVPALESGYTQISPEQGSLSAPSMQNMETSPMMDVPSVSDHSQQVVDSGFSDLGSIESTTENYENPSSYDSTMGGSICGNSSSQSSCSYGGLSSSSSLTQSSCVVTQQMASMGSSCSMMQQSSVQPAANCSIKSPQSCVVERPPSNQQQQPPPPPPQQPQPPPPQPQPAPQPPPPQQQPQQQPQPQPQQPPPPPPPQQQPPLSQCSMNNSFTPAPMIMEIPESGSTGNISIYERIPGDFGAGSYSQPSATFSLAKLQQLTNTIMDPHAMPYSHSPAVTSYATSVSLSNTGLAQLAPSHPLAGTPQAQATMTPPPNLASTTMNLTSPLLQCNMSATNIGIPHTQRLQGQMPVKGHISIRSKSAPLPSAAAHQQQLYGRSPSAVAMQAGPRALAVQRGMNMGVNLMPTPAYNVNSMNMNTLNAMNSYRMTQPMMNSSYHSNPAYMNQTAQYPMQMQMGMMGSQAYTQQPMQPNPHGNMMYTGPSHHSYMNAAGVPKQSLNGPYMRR
# test.details: Inhibition of KAT6A in human MVLN cells assessed as decrease in estrogen receptor level incubated for 24 hrs by gene reporter assay
# Format: cell-based
pIC50: −log10 of the molar value.
Below: a set of entries, each annotated with reported pIC50.

Q) Suppose we examine the molecule `Cc1cc(N(C)C)cc2oc(C(=O)NS(=O)(=O)c3ccccc3-c3ccccc3)cc12` ; what pIC50 value has been reported?
A) < 4.70

Q) Suppose we examine the molecule `O=C(NS(=O)(=O)c1ccccc1-c1ccccc1)c1cc2ccccc2o1` ; what pIC50 value has been reported?
A) < 4.70

Q) Suppose we examine the molecule `COCCc1ccc2cc(C(=O)NS(=O)(=O)c3ccccc3-c3ccccc3)oc2c1` ; what pIC50 value has been reported?
A) < 4.81

Further cases:
Q) Suppose we examine the molecule `O=C(NS(=O)(=O)c1ccccc1-c1ccccc1)c1cc2ccc(N3CCOCC3)cc2o1` ; what pIC50 value has been reported?
A) < 4.70

Q) Suppose we examine the molecule `O=C(NS(=O)(=O)c1ccccc1-c1ccccc1)c1cc2ccc(OCCO)cc2o1` ; what pIC50 value has been reported?
A) < 4.70

Hey, just so you know, these numbers are from ChEMBL document CHEMBL6092206.
